Each entry below lists one item and its recorded MIC value.
system: P. aeruginosa PA9704, PmxR
Bridge positions count the residues as written; N and C are the ends. Square brackets hold non-standard residues; d marks the D form. Peptide text beside a SMILES is read from it. * marks the point of attachment. Gly(octyl) = CCCCCCCC[C@H](N)C(=O)O; Octanoyl = CCCCCCCC(=O)*; Dab = NCC[C@H](N)C(=O)O
quantity: MIC (µg/mL)

1. CCC(C)CCCCC(=O)N[C@@H](CCN)C(=O)N[C@H](C(=O)N[C@@H](CCN)C(=O)N[C@H]1CCNC(=O)[C@H]([C@@H](C)O)NC(=O)[C@H](CCN)NC(=O)[C@H](CCN)NC(=O)[C@H](CC(C)C)NC(=O)[C@@H](Cc2ccccc2)NC(=O)[C@H](CCN)NC1=O)[C@@H](C)O (stereo partly drawn) | 128
2. CCCCCCCC[C@@H]1NC(=O)[C@@H](Cc2ccccc2)NC(=O)[C@H](CCN)NC(=O)[C@@H](NC(=O)[C@H](CCN)NC(=O)[C@@H](NC(=O)[C@H](CCN)NC(=O)CCCCCCC)[C@@H](C)O)CCNC(=O)[C@H]([C@@H](C)O)NC(=O)[C@H](CCN)NC(=O)[C@H](CCN)NC1=O (Octanoyl-[Dab]T[Dab][Dab][Dab][dF][Gly(octyl)][Dab][Dab]T; lactam 4-C) | 8

====

test system: K. pneumoniae CI 138-16357-20362, PmxR; settings: MIC K. pneumoniae CI 138-16357-20362, PmxR (µg/mL)
Numbered stars: 1 amine (or outer) side, 2 acyl side, 3 side chain; on linkers, the order of the positions; unused ones are H or OH. Bridge positions count the residues as written; N and C are the ends. Square brackets hold non-standard residues; d marks the D form. Peptide text beside a SMILES is read from it. * marks the point of attachment. NH(2-ClPh) = Clc1ccccc1N*; hSer = N[C@@H](CCO)C(=O)O; Octanoyl = CCCCCCCC(=O)*; Dab = NCC[C@H](N)C(=O)O; CO = O=C([*:1])[*:2]
quantity: MIC

1. CC(C)C[C@@H]1NC(=O)[C@@H](Cc2ccccc2)NC(=O)[C@H](CCN)NC(=O)[C@@H](NC(=O)[C@@H](CO)NC(=O)[C@@H](NC(=O)[C@H](CCN)NC(=O)Nc2ccccc2Cl)[C@@H](C)O)CCNC(=O)[C@H]([C@@H](C)O)NC(=O)[C@H](CCN)NC(=O)[C@H](CCN)NC1=O [Compound 17] ({NH(2-ClPh)-CO}-[Dab]T[dS][Dab][Dab][dF]L[Dab][Dab]T; lactam 4-C) | > 32 µg/mL
2. CCCCCCCC(=O)N[C@@H](CCN)C(=O)N[C@H](C(=O)N[C@@H](CCN)C(=O)N[C@H]1CCNC(=O)[C@H]([C@@H](C)O)NC(=O)[C@H](CCN)NC(=O)[C@H](CCO)NC(=O)[C@H](CC(C)C)NC(=O)[C@@H](Cc2ccccc2)NC(=O)[C@H](CCN)NC1=O)[C@@H](C)O [Compound 24] (Octanoyl-[Dab]T[Dab][Dab][Dab][dF]L[hSer][Dab]T; lactam 4-C) | > 32 µg/mL
3. CCCCCCCC(=O)N[C@@H](CCN)C(=O)N[C@H](C(=O)N[C@@H](CCN)C(=O)N[C@H]1CCNC(=O)[C@H]([C@@H](C)O)NC(=O)[C@H](CCNC(=O)[C@@H](N)CCC(=O)O)NC(=O)[C@H](CCN)NC(=O)[C@H](CC(C)C)NC(=O)[C@@H](Cc2ccccc2)NC(=O)[C@H](CCN)NC1=O)[C@@H](C)O [Compound 19] (Octanoyl-[Dab]T[Dab][Dab][Dab][dF]L[Dab][Dab](Glu)T; lactam 4-C) | > 32 µg/mL

====

test system: K. pneumoniae CI 138-16357-20362, PmxR; test: microbe, parasite or virus in culture; assay type: cell-based, Klebsiella pneumoniae; settings: carbapenem & polymyxin resistant clinical isolate; MHB, 5 × 10^5 CFU/mL, 18 h at 37 °C
Numbered stars: 1 amine (or outer) side, 2 acyl side, 3 side chain; on linkers, the order of the positions; unused ones are H or OH. Bridge positions count the residues as written; N and C are the ends. Square brackets hold non-standard residues; d marks the D form. Peptide text beside a SMILES is read from it. * marks the point of attachment. NH(2-ClPh) = Clc1ccccc1N*; dDab = NCC[C@@H](N)C(=O)O; hSer = N[C@@H](CCO)C(=O)O; Octanoyl = CCCCCCCC(=O)*; Dab = NCC[C@H](N)C(=O)O; CO = O=C([*:1])[*:2]
quantity: MIC K. pneumoniae CI 138-16357-20362, PmxR

1) CC(C)C[C@@H]1NC(=O)[C@@H](Cc2ccccc2)NC(=O)[C@H](CCN)NC(=O)[C@@H](NC(=O)[C@@H](CCN)NC(=O)[C@@H](NC(=O)[C@H](CCN)NC(=O)Nc2ccccc2Cl)[C@@H](C)O)CCNC(=O)[C@H]([C@@H](C)O)NC(=O)[C@H](CCN)NC(=O)[C@H](CCN)NC1=O [Compound 16] ({NH(2-ClPh)-CO}-[Dab]T[dDab][Dab][Dab][dF]L[Dab][Dab]T; lactam 4-C) | >32 µg/mL
2) CCCCCCCC(=O)N[C@@H](CCN)C(=O)N[C@H](C(=O)N[C@@H](CCN)C(=O)N[C@H]1CCNC(=O)[C@H]([C@@H](C)O)NC(=O)[C@H](CCCNC(=N)N)NC(=O)[C@H](CCN)NC(=O)[C@H](CC(C)C)NC(=O)[C@@H](Cc2ccccc2)NC(=O)[C@H](CCN)NC1=O)[C@@H](C)O [Compound 21] (Octanoyl-[Dab]T[Dab][Dab][Dab][dF]L[Dab]RT; lactam 4-C) | >32 µg/mL
3) CCCCCCCC(=O)N[C@@H](CCN)C(=O)N[C@H](C(=O)N[C@@H](CCN)C(=O)N[C@H]1CCNC(=O)[C@H]([C@@H](C)O)NC(=O)[C@H](CCN)NC(=O)[C@H](CCN)NC(=O)[C@H](CC(C)C)NC(=O)[C@@H](Cc2ccccc2)NC(=O)[C@H](CCO)NC1=O)[C@@H](C)O [Compound 33] (Octanoyl-[Dab]T[Dab][Dab][hSer][dF]L[Dab][Dab]T; lactam 4-C) | >32 µg/mL
4) CC[C@H](C)CCCCC(=O)N[C@@H](CCN)C(=O)N[C@H](C(=O)N[C@@H](CCN)C(=O)N[C@H]1CCNC(=O)[C@H]([C@@H](C)O)NC(=O)[C@H](CCN)NC(=O)[C@H](CCN)NC(=O)[C@H](CC(C)C)NC(=O)[C@@H](Cc2ccccc2)NC(=O)[C@H](CCN)NC1=O)[C@@H](C)O | 64 µg/mL
5) CCCCCCCC(=O)N[C@@H](CCN)C(=O)N[C@H](C(=O)N[C@@H](CCN)C(=O)N[C@H]1CCNC(=O)[C@H]([C@@H](C)O)NC(=O)[C@H](CCN)NC(=O)[C@H](CCNC(=O)[C@@H](N)CCCNC(=N)N)NC(=O)[C@H](CC(C)C)NC(=O)[C@@H](Cc2ccccc2)NC(=O)[C@H](CCN)NC1=O)[C@@H](C)O | >32 µg/mL

====

Each entry below lists one item and its recorded MIC K. pneumoniae CI Koprana 100650661:1, PmxR value.
Test system: K. pneumoniae CI Koprana 100650661:1, PmxR
Experiment: microbe, parasite or virus in culture
Type: cell-based, Klebsiella pneumoniae
Settings: carbapenem & polymyxin resistant clinical isolate; MHB, 5 × 10^5 CFU/mL, 18 h at 37 °C
Description: Bacteria were either obtained from American Type Culture Collection (ATCC; Manassas, VA, USA) or independent academic clinical isolate collections, as listed in Table S2. Bacteria were cultured in nutrient broth (NB; Bacto Laboratories, catalog no. 234000) or Muller Hinton broth (MHB; Bacto Laboratories, catalog no. 211443) at 37 °C overnight with shaking (∼180 rpm). A sample of each culture was then diluted 50-fold in fresh MHB and incubated at 37 °C for 1.5–3 h with shaking (∼180 rpm). […]
Bridge positions count the residues as written; N and C are the ends. Square brackets hold non-standard residues; d marks the D form. Peptide text beside a SMILES is read from it. * marks the point of attachment. dDab = NCC[C@@H](N)C(=O)O; Octanoyl = CCCCCCCC(=O)*; Dab = NCC[C@H](N)C(=O)O
quantity: MIC K. pneumoniae CI Koprana 100650661:1, PmxR

1) CCCCCCCC(=O)N[C@H](C(=O)N[C@@H](CCN)C(=O)N[C@H]1CCNC(=O)[C@H]([C@@H](C)O)NC(=O)[C@H](CCN)NC(=O)[C@H](CCN)NC(=O)[C@H](CC(C)C)NC(=O)[C@@H](Cc2ccccc2)NC(=O)[C@H](CCN)NC1=O)[C@@H](C)O [Compound 12] (Octanoyl-T[Dab][Dab][Dab][dF]L[Dab][Dab]T; lactam 3-C) | >32 µg/mL
2) CCCCCCCC(=O)N[C@H](CCN)C(=O)N[C@H](C(=O)NCC(=O)N[C@H]1CCNC(=O)[C@H]([C@@H](C)O)NC(=O)[C@H](CCN)NC(=O)[C@H](CCN)NC(=O)[C@H](CC(C)C)NC(=O)[C@@H](Cc2ccccc2)NC(=O)[C@H](CCN)NC1=O)[C@@H](C)O [Compound 40] (Octanoyl-[dDab]TG[Dab][Dab][dF]L[Dab][Dab]T; lactam 4-C) | >32 µg/mL
3) CCCCCCCC(=O)N[C@@H](CCN)C(=O)N[C@H](C(=O)N[C@@H](CCN)C(=O)N[C@H]1CCNC(=O)[C@H]([C@@H](C)O)NC(=O)[C@H](CCN)NC(=O)[C@H](CCN)NC(=O)[C@H](CC(C)C)NC(=O)[C@@H](Cc2ccccc2)NC(=O)[C@H](CCNC(=O)[C@@H](N)CCCNC(=N)N)NC1=O)[C@@H](C)O [Compound 31] (Octanoyl-[Dab]T[Dab][Dab][Dab](Arg)[dF]L[Dab][Dab]T; lactam 4-C) | >32 µg/mL
